target_system: NRAS Q61R (Homo sapiens, UniProt P01111+P62937, Q61R)
Construct: His6
Sequence (P01111 whole entry Q61R): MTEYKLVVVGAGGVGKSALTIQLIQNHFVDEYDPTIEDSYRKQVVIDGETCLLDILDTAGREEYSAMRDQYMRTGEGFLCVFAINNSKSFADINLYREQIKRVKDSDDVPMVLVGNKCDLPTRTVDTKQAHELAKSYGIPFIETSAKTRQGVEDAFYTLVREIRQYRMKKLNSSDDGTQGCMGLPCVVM
Sequence (P62937 whole entry): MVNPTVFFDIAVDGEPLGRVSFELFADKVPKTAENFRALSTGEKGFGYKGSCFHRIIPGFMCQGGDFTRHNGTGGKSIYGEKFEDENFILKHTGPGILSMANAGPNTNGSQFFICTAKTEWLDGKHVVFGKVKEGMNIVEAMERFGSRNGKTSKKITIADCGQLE
method_description: Ras-Raf disruption/FRET/MOA assay, NRAS Q61R
Format: biochemical
measurement_context: NRAS Q61R; read-out: NRAS Q61R FRET data IC50
pIC50: −log10 of the molar value.
Field: pIC50. Provide a value for each of the compounds that follow.

I looked up CCn1c(-c2cccnc2[C@H](C)OC)c2c3cc(ccc31)-c1csc(n1)C[C@H](NC(=O)[C@H](C1CCCC1)N1CC[C@]3(CCN(C(=O)[C@H]4CN4)C3)C1=O)C(=O)N1CCC[C@H](N1)C(=O)OCC(C)(C)C2 [Compound 319] and its pIC50 for NRAS Q61R (Homo sapiens, UniProt P01111+P62937, Q61R) was 5.00 to 6.00

I looked up CCn1c(-c2cccnc2[C@H](C)OC)c2c3cc(ccc31)-c1csc(n1)C[C@H](NC(=O)[C@H](C(C)C)N(C)C(=O)N1CCC[C@H](N(C)C(=O)[C@H]3CN3)C1)C(=O)N1CCC[C@H](N1)C(=O)OCC(C)(C)C2 (atropisomer, axis not shown) [Compound 290] and its pIC50 for NRAS Q61R (Homo sapiens, UniProt P01111+P62937, Q61R) was 6.00 to 7.00

I looked up CCn1c(-c2cc(N3CCN(C)CC3)cnc2[C@H](C)OC)c2c3cc(ccc31)-c1csc(n1)C[C@H](NC(=O)[C@H](C1CCCC1)N1CC[C@]3(CCN(C(=O)[C@@H]4N[C@@H]4C4CC4)C3)C1=O)C(=O)N1CCC[C@H](N1)C(=O)OCC(C)(C)C2 [Compound 324] and its pIC50 for NRAS Q61R (Homo sapiens, UniProt P01111+P62937, Q61R) was 6.00 to 7.00

I looked up CCn1c(-c2cccnc2[C@H](C)OC)c2c3cc(ccc31)-c1csc(n1)C[C@H](NC(=O)[C@H](C(C)C)N(C)C(=O)N1CCC[C@@H](N(C)C(=O)[C@H]3CN3)C1)C(=O)N1CCC[C@H](N1)C(=O)OCC(C)(C)C2 (atropisomer, axis not shown) [Compound 289] and its pIC50 for NRAS Q61R (Homo sapiens, UniProt P01111+P62937, Q61R) was 7.00 to 8.00

I looked up CCn1c(-c2cccnc2[C@H](C)OC)c2c3cc(ccc31)-c1csc(n1)C[C@H](NC(=O)[C@H](C(C)C)N(C)C(=O)N1CCC[C@@H](N(C)C(=O)[C@@H]3CN3)C1)C(=O)N1CCC[C@H](N1)C(=O)OCC(C)(C)C2 (atropisomer, axis not shown) [Compound 291] and its pIC50 for NRAS Q61R (Homo sapiens, UniProt P01111+P62937, Q61R) was 6.00 to 7.00

I looked up CCn1c(-c2cccnc2[C@H](C)OC)c2c3cc(ccc31)-c1cc(O)cc(c1)C[C@H](NC(=O)[C@H](C(C)C)N1CCCC3(CN(C(=O)[C@H]4CN4)C3)C1=O)C(=O)N1CCC[C@H](N1)C(=O)OCC(C)(C)C2 [Compound 307] and its pIC50 for NRAS Q61R (Homo sapiens, UniProt P01111+P62937, Q61R) was 6.00 to 7.00

I looked up CCn1c(-c2cnccc2COC)c2c3cc(ccc31)-c1cc(O)cc(c1)C[C@H](NC(=O)[C@H](C(C)C)N(C)C(=O)CN(C)C(=O)[C@H]1CN1S(C)(=O)=O)C(=O)N1CCC[C@H](N1)C(=O)OCC(C)(C)C2 (some centres unmarked) [Example 36] and its pIC50 for NRAS Q61R (Homo sapiens, UniProt P01111+P62937, Q61R) was 6.00 to 7.00

I looked up CCn1c(-c2cccnc2[C@H](C)OC)c2c3cc(ccc31)-c1cc(O)cc(c1)C[C@H](NC(=O)[C@H](C(C)C)N1CO[C@@]3(CCN(C(=O)[C@H]4CN4)C3)C1=O)C(=O)N1CCC[C@H](N1)C(=O)OCC(C)(C)C2 [Compound 232] and its pIC50 for NRAS Q61R (Homo sapiens, UniProt P01111+P62937, Q61R) was 6.00 to 7.00

I looked up CCn1c(-c2cccnc2[C@H](C)OC)c2c3cc(ccc31)-c1csc(n1)C[C@H](NC(=O)[C@H](C(C)C)N(C)C(=O)N1C3CCC1CN(C(=O)[C@H]1CN1)C3)C(=O)N1CCC[C@H](N1)C(=O)OCC(C)(C)C2 [Compound 303] and its pIC50 for NRAS Q61R (Homo sapiens, UniProt P01111+P62937, Q61R) was 6.00 to 7.00

I looked up CCn1c(-c2cnccc2COC)c2c3cc(ccc31)-c1cc(O)cc(c1)C[C@H](NC(=O)[C@H](C(C)C)N(C)C(=O)CN(C)C(=O)[C@@H]1CN1S(C)(=O)=O)C(=O)N1CCC[C@H](N1)C(=O)OCC(C)(C)C2 (some centres unmarked) [Compound 37] and its pIC50 for NRAS Q61R (Homo sapiens, UniProt P01111+P62937, Q61R) was 6.00 to 7.00

I looked up CCn1c(-c2cccnc2[C@H](C)OC)c2c3cc(ccc31)-c1csc(n1)C[C@H](NC(=O)[C@H](C1CCCC1)N1CC[C@]3(CCN(C(=O)[C@@H]4N[C@@H]4C4CC4)C3)C1=O)C(=O)N1CCC[C@H](N1)C(=O)OCC(C)(C)C2 [Compound 234] and its pIC50 for NRAS Q61R (Homo sapiens, UniProt P01111+P62937, Q61R) was 5.00 to 6.00

I looked up CCn1c(-c2cccnc2[C@H](C)OC)c2c3cc(ccc31)-c1cc(CF)cc(c1)C[C@H](NC(=O)[C@H](C1CCCC1)N1CC[C@]3(CCN(C(=O)[C@@H]4N[C@@H]4C4CC4)C3)C1=O)C(=O)N1CCC[C@H](N1)C(=O)OCC(C)(C)C2 [Compound 321] and its pIC50 for NRAS Q61R (Homo sapiens, UniProt P01111+P62937, Q61R) was 5.00 to 6.00

I looked up CCn1c(-c2cccnc2[C@H](C)OC)c2c3cc(ccc31)-c1cc(cc(C(F)F)c1)C[C@H](NC(=O)[C@H](C1CCCC1)N1CC[C@]3(CCN(C(=O)[C@H]4CN4)C3)C1=O)C(=O)N1CCC[C@H](N1)C(=O)OCC(C)(C)C2 [Compound 233] and its pIC50 for NRAS Q61R (Homo sapiens, UniProt P01111+P62937, Q61R) was < 5.00

I looked up CCn1c(-c2cccnc2[C@H](C)OC)c2c3cc(ccc31)-c1csc(n1)C[C@H](NC(=O)[C@H](C(C)C)N(C)C(=O)N1C3CCC1CN(C(=O)[C@@H]1CN1)C3)C(=O)N1CCC[C@H](N1)C(=O)OCC(C)(C)C2 [Compound 304] and its pIC50 for NRAS Q61R (Homo sapiens, UniProt P01111+P62937, Q61R) was 6.00 to 7.00
